MIC: recorded values
test system: Mycobacterium tuberculosis; assay: Antitubercular activity against Mycobacterium tuberculosis H37Rv ATCC 27294 by BACTEC 960 assay; assay type: functional
Dear colleague, please return just the value in µM, with no unit written.

Which MIC reading was recorded for the molecule "N/C(COc1cccc(Cl)c1)=N\NC(=O)c1ccncc1" ?
10.2

Endpoint output: MIC of "N/C(COc1ccc([N+](=O)[O-])cc1)=N/NC(=O)c1ccncc1" . Value?
19.8

I would be grateful if you could share the reported MIC for CNC1C(OC2C(OC3C(O)C(O)C(NC(=N)N)C(O)C3NC(=N)N)OC(C)C2(O)/C=N\NC(=O)c2ccncc2)OC(CO)C(O)C1O (centres undefined) .
0.214

Given the molecule "CCN(CC)CN(C)c1ccc(/C=N/NC(=O)c2ccncc2)cc1" , what is its reported MIC?
0.236

====

tested on: Mycobacterium tuberculosis; assay: Antitubercular activity against Mycobacterium tuberculosis H37Rv ATCC 27294 by BACTEC 960 assay; type: functional
Kindly apply the following: YES if MIC is less than 4 µM, NO in every other case.

CCCCCCCCC(=O)NNC(=O)c1ccncc1: YES

Just wondering, is MIC of "COc1cc(C(=O)NN)ccn1" below 4 µM?
NO

Here's an entry: "NNC(=O)c1ccnc([N+](=O)[O-])c1" . Is its MIC below 4 µM?
NO

Say whether its MIC is strictly beneath 4 µM. Entry: "C/C(=N\NC(=O)c1ccncc1)c1cccc(CN(C)C)c1O"
YES

Please indicate whether the reported MIC of "C/C(=N/NC(=O)c1ccncc1)c1cccc(CN2CCN(Cc3ccccn3)CC2)c1O" is strictly below 4 µM.
YES

Please state whether MIC is below 4 µM for "C/C(=N\NC(=O)c1ccncc1)c1cccc(CN2CCCC2)c1O"
YES

Field: below-cutoff. Rule: recorded MIC strictly less than 4 µM. Subject: "NNC(=O)c1ccncc1N"
NO

Is MIC strictly under 4 µM for the entry "Cc1cccc(OC/C(N)=N/NC(=O)c2ccncc2)c1" ?
NO

====

tested on: Mycobacterium tuberculosis; experiment: Antitubercular activity against Mycobacterium tuberculosis H37Rv ATCC 27294 by BACTEC 960 assay; assay type: functional
Value kind: MIC

Below: 3 molecules and their reported MIC.
CCCCCCCCCC(=O)NNC(=O)c1ccncc1: 0.38 µM
CCCCC/C(C)=N/NC(=O)c1ccncc1: 0.129 µM
CC(C)CNNC(=O)c1ccncc1: 0.517 µM

What value of MIC has been recorded for this entry: "CCN(CC)c1cc(C(=O)NN)ccn1"
717 µM

====

tested on: Mycobacterium tuberculosis; test: Antitubercular activity against Mycobacterium tuberculosis H37Rv ATCC 27294 by BACTEC 960 assay; assay type: functional
Value kind: MIC
Give the figure together with its unit, number first.

O=C(N/N=C/c1ccc(Oc2ccccc2)cc1)c1ccncc1: 0.95 µM
C/C(=N\NC(=O)c1ccncc1)c1cccc(CN2CCN(c3cc4c(cc3F)c(=O)c(C(=O)O)cn4C3CC3)CC2)c1O: 1.26 µM
O=Cc1ccc(/C=N/NC(=O)c2ccncc2)cc1: 0.24 µM
CCCCCC(C)C(=O)NNC(=O)c1ccncc1 (stereo not given): 3.04 µM
CC(O)(NNC(=O)c1ccncc1)C(=O)O (stereo not given): 0.266 µM

# query: MIC of entry "C/C=C/CCCCCCC/C=N/NC(=O)c1ccncc1"
0.522 µM

I'd like to know its MIC. The compound in question is "O=C(NNS(=O)(=O)c1ccccc1)c1ccncc1"
10.8 µM

Name the recorded MIC for CCn1cc(C(=O)O)c(=O)c2cc(F)c(N3CCN(Cc4cccc(/C(C)=N/NC(=O)c5ccncc5)c4O)C(C)C3)c(F)c21 (stereo not given) .
0.9 µM

Value lookup for MIC; key = "CCN(CC)Cc1cccc(/C(C)=N\NC(=O)c2ccncc2)c1O"
3.93 µM

Item "O=C(NNC(=O)c1ccncc1)c1ccncc1" has what recorded MIC?
33 µM

Item "Cc1ccc(OC/C(N)=N/NC(=O)c2ccncc2)cc1" has what recorded MIC?
22 µM
